From: ChEMBL document CHEMBL1124798

TARGET: Kappa-type opioid receptor (Cavia porcellus, UniProt P41144)
Sequence (P41144 whole entry): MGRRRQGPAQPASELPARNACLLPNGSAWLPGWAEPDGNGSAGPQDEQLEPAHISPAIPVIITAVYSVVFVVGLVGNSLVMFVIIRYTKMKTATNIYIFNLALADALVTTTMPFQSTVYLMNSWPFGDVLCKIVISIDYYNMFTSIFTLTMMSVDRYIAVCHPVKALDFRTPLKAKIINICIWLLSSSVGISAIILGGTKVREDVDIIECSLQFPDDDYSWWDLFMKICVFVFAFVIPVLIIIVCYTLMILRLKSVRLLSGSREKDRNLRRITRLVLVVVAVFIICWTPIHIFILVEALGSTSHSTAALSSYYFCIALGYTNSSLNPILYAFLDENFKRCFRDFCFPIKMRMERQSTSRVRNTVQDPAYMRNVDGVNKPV
ASSAY_DETAILS: Binding affinity was measured by the displacement of [3H]- EK in guinea pig brain membrane of Opioid receptor kappa 1
Type: cell membranes
Where a SMILES comes first, the peptide text is derived from it. [ ]: non-standard residue; d: D form. The star is where a group is joined. Tyr(Nα,Nα-allyl2) = C=CCN(CC=C)[C@@H](Cc1ccc(O)cc1)C(=O)*; Aib = CC(C)(N)C(=O)O
QUANTITY_KIND: Ki

CN1CC[C@]23c4c5ccc(O)c4O[C@H]2c2[nH]c4ccccc4c2C[C@@]3(O)[C@H]1C5 :: 4470 nM
COc1ccc2c3c1O[C@H]1c4[nH]c5ccccc5c4C[C@@]4(O)[C@@H](C2)N(CC2CC2)CC[C@]314 :: > 1000 nM
C=CCN(CC=C)[C@@H](Cc1ccc(O)cc1)C(=O)NC(C)(C)C(=O)NC(C)(C)C(=O)N[C@@H](Cc1ccccc1)C(=O)N[C@@H](CC(C)C)C(=O)O ({Tyr(Nα,Nα-allyl2)}-[Aib][Aib]FL-OH) :: > 1000 nM
Oc1ccc2c3c1O[C@H]1c4[nH]c5c(Br)cccc5c4C[C@@]4(O)[C@@H](C2)N(CC2CC2)CC[C@]314 :: 333 nM
Oc1ccc2c3c1O[C@H]1c4[nH]c5ccccc5c4C[C@@]4(O)[C@@H](C2)N(CC2CC2)CC[C@]314 :: 332 nM

The compound identified as C=CCN1CC[C@]23c4c5ccc(O)c4O[C@H]2c2[nH]c4ccccc4c2C[C@@]3(O)[C@H]1C5 registered its Ki at 321 nM

###

TARGET: Delta-type opioid receptor (Mus musculus)
ASSAY_DETAILS: Opioid receptor delta 1 antagonistic activity was measured by the displacement of DADLE in the mouse vas deferens at a concentration of 100 nM
Format: functional
QUANTITY_KIND: IC50 ratio

CC(=O)O[C@@]12Cc3c([nH]c4ccccc34)[C@@H]3Oc4c(O)ccc5c4[C@@]31CCN(CC1CC1)[C@@H]2C5 :: 43
COc1cccc2c3c([nH]c12)[C@@H]1Oc2c(O)ccc4c2[C@@]12CCN(CC1CC1)[C@H](C4)[C@]2(O)C3 :: 66
CCOc1cccc2c3c([nH]c12)[C@@H]1Oc2c(O)ccc4c2[C@@]12CCN(CC1CC1)[C@H](C4)[C@]2(O)C3 :: 178
Oc1ccc2c3c1O[C@H]1c4[nH]c5c(O)cccc5c4C[C@@]4(O)[C@@H](C2)N(CC2CC2)CC[C@]314 :: 239
COc1ccc2c3c1O[C@H]1c4[nH]c5ccccc5c4C[C@@]4(O)[C@@H](C2)N(CC2CC2)CC[C@]314 :: 1.5
Oc1ccc2c3c1O[C@H]1c4[nH]c5cc6ccccc6cc5c4C[C@@]4(O)[C@@H](C2)N(CC2CC2)CC[C@]314 :: 4.7

Moving on to another compound below.
Per the records, this compound ( Oc1ccc2c3c1O[C@H]1c4[nH]c5c(F)cccc5c4C[C@@]4(O)[C@@H](C2)N(CC2CC2)CC[C@]314 ) has IC50 ratio equal to 287

###

Give log10 of Ke for every item shown.
TARGET: Delta-type opioid receptor (Mus musculus) (UniProt P32300)
Sequence (P32300 whole entry): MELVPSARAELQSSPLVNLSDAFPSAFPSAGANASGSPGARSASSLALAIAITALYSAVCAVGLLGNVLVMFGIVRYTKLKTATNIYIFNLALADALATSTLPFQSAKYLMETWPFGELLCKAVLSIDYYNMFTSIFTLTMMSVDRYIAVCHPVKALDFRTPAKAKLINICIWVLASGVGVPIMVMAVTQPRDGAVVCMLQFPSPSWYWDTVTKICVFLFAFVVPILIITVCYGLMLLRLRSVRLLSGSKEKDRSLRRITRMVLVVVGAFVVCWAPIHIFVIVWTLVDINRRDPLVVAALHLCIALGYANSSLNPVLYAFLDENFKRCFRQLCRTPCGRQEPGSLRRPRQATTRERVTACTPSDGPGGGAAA
ASSAY_DETAILS: Antagonist potency was determined as the ratio of [antagonist] to (IC50 ratio-1) for opioid receptor delta 1
Type: functional
Where a SMILES comes first, the peptide text is derived from it. [ ]: non-standard residue; d: D form. The star is where a group is joined. Tyr(Nα,Nα-allyl2) = C=CCN(CC=C)[C@@H](Cc1ccc(O)cc1)C(=O)*; Aib = CC(C)(N)C(=O)O
Response schema: value (number) is log10 of Ke in units of nM.

Hi! Can you tell me log10 of Ke for each of these molecules?
1. O=[N+]([O-])c1ccc2[nH]c3c(c2c1)C[C@@]1(O)[C@H]2Cc4ccc(O)c5c4[C@@]1(CCN2CC1CC1)[C@H]3O5
2. Oc1ccc2c3c1O[C@H]1c4c(c5ccccc5n4-c4ccccc4)C[C@@]4(O)[C@@H](C2)N(CC2CC2)CC[C@]314
3. Oc1ccc2[nH]c3c(c2c1)C[C@@]1(O)[C@H]2Cc4ccc(O)c5c4[C@@]1(CCN2CC1CC1)[C@H]3O5
4. Cc1ccc2[nH]c3c(c2c1)C[C@@]1(O)[C@H]2Cc4ccc(O)c5c4[C@@]1(CCN2CC1CC1)[C@H]3O5

Reply:
1. 2.16
2. 0.49
3. 1.43
4. 0.57

For every item below, please supply its log10 of Ke.
1. Cc1ccc2c3c([nH]c2c1)[C@@H]1Oc2c(O)ccc4c2[C@@]12CCN(CC1CC1)[C@H](C4)[C@]2(O)C3
2. Oc1ccc2c3c1O[C@H]1c4[nH]c5ccc(F)cc5c4C[C@@]4(O)[C@@H](C2)N(CC2CC2)CC[C@]314
3. CC(=O)O[C@@]12Cc3c([nH]c4ccccc34)[C@@H]3Oc4c(O)ccc5c4[C@@]31CCN(CC1CC1)[C@@H]2C5
4. CN1CC[C@]23c4c5ccc(O)c4O[C@H]2c2[nH]c4ccccc4c2C[C@@]3(O)[C@H]1C5
5. C=CCN1CC[C@]23c4c5ccc(O)c4O[C@H]2c2[nH]c4ccccc4c2C[C@@]3(O)[C@H]1C5
6. Oc1ccc2c3c1O[C@H]1c4[nH]c5cc6ccccc6cc5c4C[C@@]4(O)[C@@H](C2)N(CC2CC2)CC[C@]314
7. Oc1ccc2c3c1O[C@H]1c4[nH]c5c(ccc6ccccc65)c4C[C@@]4(O)[C@@H](C2)N(CC2CC2)CC[C@]314

Reply:
0.54
0.28
0.38
0.70
0.04
1.43
0.95

// for each molecule below, give its log10 of Ke
1. C=CCN(CC=C)[C@@H](Cc1ccc(O)cc1)C(=O)NC(C)(C)C(=O)NC(C)(C)C(=O)N[C@@H](Cc1ccccc1)C(=O)N[C@@H](CC(C)C)C(=O)O ({Tyr(Nα,Nα-allyl2)}-[Aib][Aib]FL-OH)
2. Oc1ccc2c3c1O[C@H]1c4[nH]c5c(Br)cccc5c4C[C@@]4(O)[C@@H](C2)N(CC2CC2)CC[C@]314

Reply:
1. 1.84
2. 0.08
